Consider the following molecules; for each one, report its activation at 10 µM.
# EXPERIMENTAL_SYSTEM: UniProt:P23977
# Sequence (P23977 whole entry): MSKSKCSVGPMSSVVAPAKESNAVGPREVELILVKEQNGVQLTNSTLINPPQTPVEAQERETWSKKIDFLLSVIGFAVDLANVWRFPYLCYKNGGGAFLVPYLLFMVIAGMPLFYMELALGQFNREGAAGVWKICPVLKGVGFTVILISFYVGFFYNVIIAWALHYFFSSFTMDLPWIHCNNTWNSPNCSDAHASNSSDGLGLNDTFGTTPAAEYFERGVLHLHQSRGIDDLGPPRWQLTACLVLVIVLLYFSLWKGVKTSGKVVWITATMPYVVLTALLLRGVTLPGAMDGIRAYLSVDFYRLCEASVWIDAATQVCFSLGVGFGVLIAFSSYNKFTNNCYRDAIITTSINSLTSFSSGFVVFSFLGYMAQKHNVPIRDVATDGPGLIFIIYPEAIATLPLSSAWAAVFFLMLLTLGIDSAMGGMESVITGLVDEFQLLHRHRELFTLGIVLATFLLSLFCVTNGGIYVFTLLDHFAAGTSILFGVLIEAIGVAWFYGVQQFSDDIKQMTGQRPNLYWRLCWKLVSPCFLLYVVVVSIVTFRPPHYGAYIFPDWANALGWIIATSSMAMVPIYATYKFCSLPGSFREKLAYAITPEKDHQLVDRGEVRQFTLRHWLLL
# TEST_NAME: DA release assay (synaptosomes, [3H]MPP+)
# Type: biochemical
# Set-up: the supernatants were retained on ice (synaptosomal preparation); from tissue; host or cells: rat caudate synaptosomes
# TEST_CONTEXT: Table 3; 10 μM
Give your result in % as a bare value.

Problem: Find activation at 10 µM (UniProt:P23977) for the entry C[C@H]1NCCOC1c1cccc(Cl)c1 (stereo in doubt)
Solution: 100

Problem: Ok, now CC1NCCOC1c1cccc(F)c1 (stereo not shown)
Solution: 100

Problem: Ok, now CC1NCCOC1(O)c1cccc(F)c1 (stereo not shown)
Solution: 34

Problem: Ok, now Fc1ccc(C2CNCCO2)cc1 (stereo not shown)
Solution: 95
